- System: Mycobacterium tuberculosis Erdman (autoluminescent)
- Protocol notes: Einf, fitted maximum growth inhibition of three-drug combination (fraction); higher = stronger maximal inhibition
- Recorded conditions: in vitro model: dormancy (butyrate + nitrate, low O2); time point: constant (~7 days, model-specific)
Observed property: Einf
The response must contain the number and no unit.

Some compounds with known Einf results, for comparison:
{"columns": ["Compound", "Einf"],
 "data": [
  ["COc1nc2ccc(Br)cc2cc1[C@@H](c1ccccc1)[C@@](O)(CCN(C)C)c1cccc2ccccc12 [bedaquiline] + CC[C@@H](CO)NCCN[C@@H](CC)CO [ethambutol] + CC(=O)NC[C@H]1CN(c2ccc(N3CCOCC3)c(F)c2)C(=O)O1 [linezolid]", 0.886],
  ["COc1nc2ccc(Br)cc2cc1[C@@H](c1ccccc1)[C@@](O)(CCN(C)C)c1cccc2ccccc12 [bedaquiline] + CC(=O)NC[C@H]1CN(c2ccc(N3CCOCC3)c(F)c2)C(=O)O1 [linezolid] + COc1c(N2C[C@@H]3CCCN[C@@H]3C2)c(F)cc2c(=O)c(C(=O)O)cn(C3CC3)c12 [moxifloxacin]", 0.921]
]}

Would you kindly look at the next entry?
Q) Endpoint output: Einf of COc1nc2ccc(Br)cc2cc1[C@@H](c1ccccc1)[C@@](O)(CCN(C)C)c1cccc2ccccc12 [bedaquiline] + CC[C@@H](CO)NCCN[C@@H](CC)CO [ethambutol] + COc1c(N2C[C@@H]3CCCN[C@@H]3C2)c(F)cc2c(=O)c(C(=O)O)cn(C3CC3)c12 [moxifloxacin] . Value?
A) 0.884
